experiment: Permeability from apical to basolateral side of human Caco-2 cell membrane; type: ADME, cell-based
MEASURED PARAMETER: Papp A→B (nm/s)

• O=C(Cc1ccccc1)N[C@H]1CO[C@H](/C=C/c2ccccc2)OC1 = 88.6
• C[C@@H]1O[C@H](c2ccc([N+](=O)[O-])cc2)OC[C@H]1NC(=O)Cc1ccccc1 = 103
• C[C@@H]1O[C@@H](c2ccc([N+](=O)[O-])cc2)OC[C@H]1N = 130
• C[C@@H]1O[C@@H](c2ccc([N+](=O)[O-])cc2)OC[C@H]1NC(=O)Cc1ccccc1 = 104
• C[C@@H]1O[C@H](/C=C/c2ccccc2)OC[C@H]1NC(=O)Cc1ccccc1 = 88
• C[C@@H]1O[C@@H](c2ccc(Cl)cc2)OC[C@H]1N = 119
• C[C@@H]1O[C@H](c2ccc(Cl)cc2)OC[C@H]1N = 117
• C[C@@H]1O[C@H](c2ccc([N+](=O)[O-])cc2)OC[C@H]1N = 129
• C[C@@H]1O[C@@H](c2ccc(Cl)cc2)OC[C@H]1NC(=O)Cc1ccccc1 = 102
• O=C(Cc1ccccc1)N[C@H]1CO[C@@H](/C=C/c2ccccc2)OC1 = 89.7
• C[C@@H]1O[C@H](c2ccc(Cl)cc2)OC[C@H]1NC(=O)Cc1ccccc1 = 102
• C[C@@H]1O[C@@H](C=Cc2ccccc2)OC[C@H]1N = 102
• C[C@@H]1O[C@H](C=Cc2ccccc2)OC[C@H]1N = 103

###

tested on: Mus musculus; assay: Gastrointestinal toxicity in mouse assessed as tail bleeding time at 200 mg/kg, po after 45 mins; type: organism-based; parameters: dose 200 mg/kg, route oral; conditions: in vivo, 0.75 h
MEASURED PARAMETER: Time (s)
The response must be a number in s with no trailing unit.

Data request: Check the records and state Time for N[C@H]1CCCO[C@@H](c2ccc(Cl)cc2)OC1
Data returned: 117.5

Data request: Check the records and state Time for N[C@H]1CO[C@@H](c2ccc(Cl)cc2)OC1
Data returned: 118.9

Data request: Check the records and state Time for N[C@H]1CO[C@H](c2cccc([N+](=O)[O-])c2)OC1
Data returned: 118

Data request: Check the records and state Time for Cc1ccc([C@@H]2OC[C@@H](N)[C@H](C)O2)cc1
Data returned: 118.5

Data request: Check the records and state Time for C[C@@H]1O[C@@H](c2cccc([N+](=O)[O-])c2)OC[C@H]1N
Data returned: 119.2

Data request: Check the records and state Time for N[C@H]1CO[C@@H](c2ccccc2)OC1
Data returned: 118.8

###

test system: Mus musculus; assay: Gastrointestinal toxicity in mouse assessed as tail bleeding time at 200 mg/kg, po after 30 mins; type: organism-based; parameters: dose 200 mg/kg, route oral; conditions: in vivo, 0.5 h
Time values by entry
The response must be a number in s with no trailing unit.

Example cases with answers are listed next.
• C[C@@H]1O[C@H](C=Cc2ccccc2)OC[C@H]1N = 120.7
• C[C@@H]1O[C@@H](c2cccc([N+](=O)[O-])c2)OC[C@H]1N = 118.9
• C[C@@H]1O[C@@H](c2ccc(Cl)cc2)OC[C@H]1N = 118.3
• N[C@H]1CCCO[C@@H](c2ccc(Cl)cc2)OC1 = 119.4
• N[C@H]1CCCO[C@@H](c2ccc([N+](=O)[O-])cc2)OC1 = 118.6

Data request: Check the records and state Time for N[C@H]1CCO[C@@H](c2cccc([N+](=O)[O-])c2)OC1
Data returned: 120.1

Data request: Check the records and state Time for N[C@H]1CCCO[C@H](c2cccc([N+](=O)[O-])c2)OC1
Data returned: 117.8

Data request: Check the records and state Time for N[C@H]1CO[C@@H](c2cccc([N+](=O)[O-])c2)OC1
Data returned: 119.3

Data request: Check the records and state Time for N[C@H]1CCO[C@H](c2cccc([N+](=O)[O-])c2)OC1
Data returned: 117.9

Data request: Check the records and state Time for Cc1ccc([C@H]2OC[C@@H](N)[C@H](C)O2)cc1
Data returned: 120.9

Data request: Check the records and state Time for N[C@H]1CCO[C@H](c2ccc(Cl)cc2)OC1
Data returned: 117.9

###

Time values by entry
tested on: Mus musculus; assay: Gastrointestinal toxicity in mouse assessed as tail bleeding time at 200 mg/kg, po after 45 mins; format: organism-based; design: dose 200 mg/kg, route oral; details: in vivo, 0.75 h
The response must be a number in s with no trailing unit.

* C[C@@H]1O[C@H](c2cccc([N+](=O)[O-])c2)OC[C@H]1N | 118.2
* N[C@H]1CCO[C@@H](c2ccc([N+](=O)[O-])cc2)OC1 | 118.5
* Cc1ccc([C@H]2OC[C@@H](N)[C@H](C)O2)cc1 | 121
* N[C@H]1CCCO[C@@H](c2cccc([N+](=O)[O-])c2)OC1 | 118.2
* C[C@@H]1O[C@H](c2ccc([N+](=O)[O-])cc2)OC[C@H]1N | 118.1

Data request: Check the records and state Time for C[C@@H]1O[C@@H](c2ccc(Cl)cc2)OC[C@H]1N
Data returned: 118.9

Data request: Check the records and state Time for N[C@H]1CCO[C@@H](c2cccc([N+](=O)[O-])c2)OC1
Data returned: 118.7

Data request: Check the records and state Time for Cc1ccc([C@H]2OC[C@H](N)CO2)cc1
Data returned: 119.2

Data request: Check the records and state Time for N[C@H]1CCCO[C@H](c2ccc([N+](=O)[O-])cc2)OC1
Data returned: 120.3

Data request: Check the records and state Time for N[C@H]1CCO[C@H](c2cccc([N+](=O)[O-])c2)OC1
Data returned: 118.6

Data request: Check the records and state Time for C[C@@H]1O[C@H](C=Cc2ccccc2)OC[C@H]1N
Data returned: 120.2

###

Time values by entry
test system: Mus musculus; assay: Gastrointestinal toxicity in mouse assessed as tail bleeding time at 200 mg/kg, po after 90 mins; format: organism-based; set-up: dose 200 mg/kg, route oral; details: in vivo, 1.5 h
The response must be a number in s with no trailing unit.

* N[C@H]1CCCO[C@@H](c2ccc(Cl)cc2)OC1 | 117.8
* C[C@@H]1O[C@H](c2ccc(Cl)cc2)OC[C@H]1N | 118.6
* C[C@@H]1O[C@H](c2ccc([N+](=O)[O-])cc2)OC[C@H]1N | 119
* N[C@H]1CCO[C@@H](c2ccc([N+](=O)[O-])cc2)OC1 | 117.2
* N[C@H]1CCCO[C@@H](c2ccc([N+](=O)[O-])cc2)OC1 | 117.6
* C[C@@H]1O[C@H](c2ccccc2)OC[C@H]1N | 118.9
* N[C@H]1CO[C@@H](c2ccc([N+](=O)[O-])cc2)OC1 | 119.4
* C[C@@H]1O[C@H](c2cccc([N+](=O)[O-])c2)OC[C@H]1N | 118.2
* N[C@H]1CO[C@H](c2ccccc2)OC1 | 119.6
* N[C@H]1CO[C@H](c2cccc([N+](=O)[O-])c2)OC1 | 118.7

Data request: Check the records and state Time for C[C@@H]1O[C@H](C=Cc2ccccc2)OC[C@H]1N
Data returned: 117.7

Data request: Check the records and state Time for N[C@H]1CCCO[C@@H](c2cccc([N+](=O)[O-])c2)OC1
Data returned: 119.3

Data request: Check the records and state Time for Cc1ccc([C@H]2OC[C@@H](N)CO2)cc1
Data returned: 118.4

Data request: Check the records and state Time for C[C@@H]1O[C@@H](c2cccc([N+](=O)[O-])c2)OC[C@H]1N
Data returned: 118.3

Data request: Check the records and state Time for N[C@H]1CO[C@@H](c2ccccc2)OC1
Data returned: 118.7

Data request: Check the records and state Time for N[C@H]1CCCO[C@H](c2cccc([N+](=O)[O-])c2)OC1
Data returned: 118

Data request: Check the records and state Time for Cc1ccc([C@H]2OC[C@@H](N)[C@H](C)O2)cc1
Data returned: 118.7

Data request: Check the records and state Time for N[C@H]1CO[C@@H](c2ccc(Cl)cc2)OC1
Data returned: 119.4

Data request: Check the records and state Time for C[C@@H]1O[C@@H](c2ccc(Cl)cc2)OC[C@H]1N
Data returned: 118.7

Data request: Check the records and state Time for N[C@H]1CO[C@@H](c2cccc([N+](=O)[O-])c2)OC1
Data returned: 120.2

Data request: Check the records and state Time for N[C@H]1CCCO[C@H](c2ccc(Cl)cc2)OC1
Data returned: 118.3

###

Time values by entry
tested on: Mus musculus; test: Gastrointestinal toxicity in mouse assessed as tail bleeding time at 200 mg/kg, po after 60 mins; type: organism-based; design: dose 200 mg/kg, route oral; conditions: in vivo, 1 h
The response must be a number in s with no trailing unit.

* Cc1ccc([C@H]2OC[C@@H](N)[C@H](C)O2)cc1 | 119.8

Data request: Check the records and state Time for N[C@H]1CO[C@H](c2cccc([N+](=O)[O-])c2)OC1
Data returned: 118.4

Data request: Check the records and state Time for N[C@H]1CO[C@@H](c2ccc(Cl)cc2)OC1
Data returned: 120.9

Data request: Check the records and state Time for N[C@H]1CCCO[C@@H](c2ccc([N+](=O)[O-])cc2)OC1
Data returned: 118.4

Data request: Check the records and state Time for Cc1ccc([C@H]2OC[C@H](N)CO2)cc1
Data returned: 119.5
